These data points were gathered from patent US20230212121A1.

Biological target: dopamine transporter (DAT) (Homo sapiens)
Construct: expressed in transfected cells; host or cells: HEK-293
Sequence (Q01959 whole entry, species assumed): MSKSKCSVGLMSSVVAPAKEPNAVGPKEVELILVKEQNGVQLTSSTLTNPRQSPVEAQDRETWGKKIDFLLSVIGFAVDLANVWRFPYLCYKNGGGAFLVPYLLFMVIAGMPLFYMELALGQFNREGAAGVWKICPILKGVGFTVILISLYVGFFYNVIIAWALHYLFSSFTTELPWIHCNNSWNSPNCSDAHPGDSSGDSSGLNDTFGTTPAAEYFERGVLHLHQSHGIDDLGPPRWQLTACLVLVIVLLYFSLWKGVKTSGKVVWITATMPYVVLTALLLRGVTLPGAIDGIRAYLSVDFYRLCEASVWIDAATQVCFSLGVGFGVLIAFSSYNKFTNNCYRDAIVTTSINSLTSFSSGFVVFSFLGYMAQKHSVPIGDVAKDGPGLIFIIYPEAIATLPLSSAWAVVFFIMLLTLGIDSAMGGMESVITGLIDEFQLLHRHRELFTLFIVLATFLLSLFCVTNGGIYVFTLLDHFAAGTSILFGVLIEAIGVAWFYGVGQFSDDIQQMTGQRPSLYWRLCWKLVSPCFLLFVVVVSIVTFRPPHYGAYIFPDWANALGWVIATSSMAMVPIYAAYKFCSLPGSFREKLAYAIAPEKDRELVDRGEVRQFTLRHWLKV
Experiment: Dopamine reuptake inhibition, [3H]-DA, HEK-293 cells transfected with dopamine transporter cDNA
Format: cell-based
Details: compound 1 μM; 20-30 nM [3H]-DA; relative to control without compound = 100%; lower value = more inhibition
Would you kindly list Triple reuptake inhibition (Ratio %) DAT for each of these compounds?
The answer is to be given in %; state only the numeric part.

Input O=S(=O)(NCCCN1CCC(Cc2ccccc2)CC1)c1cccc2ccccc12 . Output Triple reuptake inhibition (Ratio %) DAT: 35.21

Input O=S(=O)(NCCN1CCC(Cc2ccccc2)CC1)c1ccc2ccccc2n1 . Output Triple reuptake inhibition (Ratio %) DAT: 80.21

Input CCCCOc1ccc(S(=O)(=O)NCCCN2CCC(c3ccc(Cl)c(Cl)c3)CC2)cc1 . Output Triple reuptake inhibition (Ratio %) DAT: 31.02

Input CCCCOc1ccc(S(=O)(=O)NCCCN2CCC(Cc3ccc(F)cc3)CC2)cc1 . Output Triple reuptake inhibition (Ratio %) DAT: 45.64

Input O=S(=O)(NCCCN1CCC(Cc2ccccc2)CC1)c1ccc(-c2ccccc2)cc1 . Output Triple reuptake inhibition (Ratio %) DAT: 61.90

Input CCCCOc1ccc(S(=O)(=O)NCCCN2CCN(c3cccc(Cl)c3Cl)CC2)cc1 . Output Triple reuptake inhibition (Ratio %) DAT: 99.30

Input CN(C)CCC(=O)Nc1ccc(S(=O)(=O)NCCCN2CCC(Cc3ccccc3)CC2)cc1 . Output Triple reuptake inhibition (Ratio %) DAT: 65.67

Input CCCCOc1ccc(S(=O)(=O)NCCN2CCC(c3c[nH]c4ccc(C)cc34)CC2)cc1 . Output Triple reuptake inhibition (Ratio %) DAT: 99.63

Input CCCCOc1ccc(S(=O)(=O)NCCCN2CCN(c3ccc(Cl)c(Cl)c3)CC2)cc1 . Output Triple reuptake inhibition (Ratio %) DAT: 99.56

Input O=S(=O)(NCCCN1CCC(Cc2ccccc2)CC1)c1ccc2ccccc2c1 . Output Triple reuptake inhibition (Ratio %) DAT: 45.75

Input O=S(=O)(NCCN1CCC(Cc2ccccc2)CC1)c1ccc(Oc2ccccc2)cc1 . Output Triple reuptake inhibition (Ratio %) DAT: 50.09

Input O=S(=O)(NCCCCN1CCN(CCCc2ccccc2)CC1)c1ccc(-c2ccccc2)cc1 . Output Triple reuptake inhibition (Ratio %) DAT: 25.52

Input O=S(=O)(NCCN1CCN(c2ccc(Cl)cc2)CC1)c1ccc2ccccc2n1 . Output Triple reuptake inhibition (Ratio %) DAT: 68.53

Input O=S(=O)(NCCN1CCC(Cc2ccccc2)CC1)c1ccc2ccccc2c1 . Output Triple reuptake inhibition (Ratio %) DAT: 56.59

Input CCCCOc1ccc(S(=O)(=O)NCCCN2CCC(Cc3ccccc3)CC2)nc1 . Output Triple reuptake inhibition (Ratio %) DAT: 16.12

Input CCCCOc1ccc(S(=O)(=O)NCCCN2CCC(Cc3ccc(F)c(F)c3)CC2)cc1 . Output Triple reuptake inhibition (Ratio %) DAT: 57.35

Input CCCCOc1ccc(S(=O)(=O)N2CCC(c3c[nH]c4ccccc34)CC2)cc1 . Output Triple reuptake inhibition (Ratio %) DAT: 100.55

Input CCCCOc1ccc(S(=O)(=O)NCCN2CCC(Cc3ccc(Cl)c(Cl)c3)CC2)cc1 . Output Triple reuptake inhibition (Ratio %) DAT: 88.71

Input O=S(=O)(NCCN1CCC(c2ccccc2)CC1)c1ccc2ccccc2c1 . Output Triple reuptake inhibition (Ratio %) DAT: 80.21

Input COc1ccc(-c2ccc(S(=O)(=O)NCCCN3CCC(Cc4ccccc4)CC3)cc2)cc1 . Output Triple reuptake inhibition (Ratio %) DAT: 29.62

Input O=S(=O)(NCCCN1CCC(Cc2ccccc2)CC1)c1ccc(OC(F)(F)F)cc1 . Output Triple reuptake inhibition (Ratio %) DAT: 16.35

Input O=S(=O)(NCCCN1CCN(CCCc2ccccc2)CC1)c1ccc(-c2ccccc2)cc1 . Output Triple reuptake inhibition (Ratio %) DAT: 19.97

Input O=S(=O)(NCCCN1CCN(c2ccc(Cl)cc2)CC1)c1ccc2ccccc2n1 . Output Triple reuptake inhibition (Ratio %) DAT: 68.53

Input O=S(=O)(NCCCN1CCC(Cc2ccccc2)CC1)c1ccc(-c2ccc(Cl)cc2)cc1 . Output Triple reuptake inhibition (Ratio %) DAT: 15.16

Input O=S(=O)(NCCCN1CCN(Cc2ccccc2)CC1)c1cccc2ccccc12 . Output Triple reuptake inhibition (Ratio %) DAT: 83.08

Input O=S(=O)(NCCN1CCC(Cc2ccccc2)CC1)c1ccc(-c2ccccc2)cc1 . Output Triple reuptake inhibition (Ratio %) DAT: 41.80

Input O=S(=O)(NCCCN1CCC(Cc2ccccc2)CC1)c1ccc2ccccc2n1 . Output Triple reuptake inhibition (Ratio %) DAT: 13.09

Input O=S(=O)(NCCCN1CCC(c2ccccc2)CC1)c1cccc2ccccc12 . Output Triple reuptake inhibition (Ratio %) DAT: 80.21

Input CCCCOc1ccc(S(=O)(=O)NCCCN2CCC(Cc3ccc(Cl)c(Cl)c3)CC2)cc1 . Output Triple reuptake inhibition (Ratio %) DAT: 56.29

Input O=S(=O)(NCCCN1CCN(c2ccc(Cl)cc2)CC1)c1ccc2ccccc2c1 . Output Triple reuptake inhibition (Ratio %) DAT: 86.5

Input O=C(CCN1CCCCC1)Nc1ccc(S(=O)(=O)NCCCN2CCC(Cc3ccccc3)CC2)cc1 . Output Triple reuptake inhibition (Ratio %) DAT: 40.96

Input O=S(=O)(NCCCN1CCN(c2ccc(Cl)cc2)CC1)c1ccc(-c2ccccc2)cc1 . Output Triple reuptake inhibition (Ratio %) DAT: 68.53

Input O=S(=O)(NCCN1CCC(Cc2ccccc2)CC1)c1ccc(F)cc1 . Output Triple reuptake inhibition (Ratio %) DAT: 73.55

Input O=S(=O)(NCCCN1CCC(Cc2ccccc2)CC1)c1ccc(-c2ccc(F)cc2)cc1 . Output Triple reuptake inhibition (Ratio %) DAT: 55.51
